# Tested on: Escherichia coli Nissle 1917 (EcN)
# ASSAY NAME: Growth kinetic curves of Escherichia coli Nissle 1917 (OD600, DMFit)
# Type: cell-based
# CONDITION CONTEXT: EcN in nutrient broth supplemented at 2 mg/mL, 37 °C, n = 3
Marks after values point to notes of the source that are not given here.
# reported Lag (min); entries follow

| MOLECULE | Lag (min) |
| --- | --- |
| CCO[C@@H]1O[C@H](CO)[C@@H](O)[C@H](O)[C@H]1O [Compound 8, ethyl β-D-glucopyranoside] | 180 ^b min |

Value wanted: Lag (min) (Escherichia coli Nissle 1917 (EcN)) of entry `CC(=O)c1c(C)cc2cccc(O[C@@H]3O[C@H](CO)[C@@H](O)[C@H](O)[C@H]3O)c2c1O`
180 ^b min

Also `COc1cc(O)c2c(c1)C(=O)c1cc(C)cc(O)c1C2=O` ?
180 ^b min

Also `CC(=O)c1c(C)cc2cccc(O)c2c1O` ?
240 ^a min

Also `Cc1cc(O)c2c(c1)C(=O)c1cccc(O)c1C2=O` ?
180 ^b min

Also CC[C@@H](CCC(C)C1CCC2C3CC=C4C[C@@H](O[C@@H]5O[C@H](CO)[C@@H](O)[C@H](O)[C@H]5O)CC[C@]4(C)C3CC[C@]12C)C(C)C (stereo partly drawn) [Compound 6, β-sitosterol 3-O-β-D-glucoside] ?
180 ^b min

Also `Cc1cc(O)c2c(c1)C(=O)c1cc(O)cc(O)c1C2=O` ?
240 ^a min

Also `CC[C@H](CC[C@@H](C)[C@H]1CC[C@H]2[C@@H]3CC=C4C[C@@H](O)CC[C@]4(C)[C@H]3CC[C@]12C)C(C)C` ?
60 ^c min

Reference source for all entries: paper PMC9043391
